Test system: Pseudomonas aeruginosa 799
Test: oral ED50, systemic infection in mice
Settings: Pseudomonas aeruginosa, 799, in Mus musculus, read-out: oral ED50
observable: ED50

* CC1=C(C(=O)O)N2C(=O)[C@@H](NC(=O)[C@H](N)c3ccccc3)[C@H]2SC1 | > 1000 mg/kg
* CC1=C(C(=O)O)N2C(=O)[C@@H](NC(=O)[C@H](N)C3=CCC=CC3)[C@H]2SC1 | > 300 mg/kg
* COC1=C(C(=O)O)N2C(=O)[C@@H](NC(=O)[C@H](N)C3=CCC=CC3)[C@H]2SC1 | > 300 mg/kg
* COC1=C(C(=O)O)N2C(=O)[C@@H](NC(=O)[C@H](N)c3ccccc3)[C@H]2SC1 | > 300 mg/kg

###

Listing of entries alongside the reported ED50.
Test system: P. mirabilis 774
Test: oral ED50, systemic infection in mice
Conditions: Proteus mirabilis, 774, in Mus musculus, read-out: oral ED50
observable: ED50

- COC1=C(C(=O)O)N2C(=O)[C@@H](NC(=O)[C@H](N)C3=CCC=CC3)[C@H]2SC1: 16 mg/kg
- CC1=C(C(=O)O)N2C(=O)[C@@H](NC(=O)[C@H](N)C3=CCC=CC3)[C@H]2SC1: ~50 mg/kg
- CC1=C(C(=O)O)N2C(=O)[C@@H](NC(=O)[C@H](N)c3ccccc3)[C@H]2SC1: 80 mg/kg
- COC1=C(C(=O)O)N2C(=O)[C@@H](NC(=O)[C@H](N)c3ccccc3)[C@H]2SC1: 54 mg/kg

###

System: K. pneumoniae 329
Experiment: oral ED50, systemic infection in mice
Conditions: Klebsiella pneumoniae, 329, in Mus musculus, read-out: oral ED50
observable: ED50

• CC1=C(C(=O)O)N2C(=O)[C@@H](NC(=O)[C@H](N)c3ccccc3)[C@H]2SC1 = 47 mg/kg
• COC1=C(C(=O)O)N2C(=O)[C@@H](NC(=O)[C@H](N)c3ccccc3)[C@H]2SC1 = 35 mg/kg
• COC1=C(C(=O)O)N2C(=O)[C@@H](NC(=O)[C@H](N)C3=CCC=CC3)[C@H]2SC1 = 17 mg/kg
• CC1=C(C(=O)O)N2C(=O)[C@@H](NC(=O)[C@H](N)C3=CCC=CC3)[C@H]2SC1 = 120 mg/kg

###

Tested on: E. coli 2
Assay: oral ED50, systemic infection in mice
Conditions: Escherichia coli, 2, in Mus musculus, read-out: oral ED50
observable: ED50

• COC1=C(C(=O)O)N2C(=O)[C@@H](NC(=O)[C@H](N)C3=CCC=CC3)[C@H]2SC1 = ~140 mg/kg
• CC1=C(C(=O)O)N2C(=O)[C@@H](NC(=O)[C@H](N)C3=CCC=CC3)[C@H]2SC1 = > 300 mg/kg
• COC1=C(C(=O)O)N2C(=O)[C@@H](NC(=O)[C@H](N)c3ccccc3)[C@H]2SC1 = > 1000 mg/kg
• CC1=C(C(=O)O)N2C(=O)[C@@H](NC(=O)[C@H](N)c3ccccc3)[C@H]2SC1 = > 1000 mg/kg

###

System: Salmonella typhimurium 273
Test: oral ED50, systemic infection in mice
Conditions: Salmonella enterica, in Mus musculus, read-out: oral ED50
List of ED50 values.
observable: ED50 (mg/kg)

* COC1=C(C(=O)O)N2C(=O)[C@@H](NC(=O)[C@H](N)c3ccccc3)[C@H]2SC1 | 60
* CC1=C(C(=O)O)N2C(=O)[C@@H](NC(=O)[C@H](N)c3ccccc3)[C@H]2SC1 | 140
* CC1=C(C(=O)O)N2C(=O)[C@@H](NC(=O)[C@H](N)C3=CCC=CC3)[C@H]2SC1 | 80
* COC1=C(C(=O)O)N2C(=O)[C@@H](NC(=O)[C@H](N)C3=CCC=CC3)[C@H]2SC1 | 30
